Where do these numbers come from? They come from patent US20240409645A1.

Target: T1, mouse IL-2Rβ (mouse) (UniProt P16297)
T1 sequence (looked up): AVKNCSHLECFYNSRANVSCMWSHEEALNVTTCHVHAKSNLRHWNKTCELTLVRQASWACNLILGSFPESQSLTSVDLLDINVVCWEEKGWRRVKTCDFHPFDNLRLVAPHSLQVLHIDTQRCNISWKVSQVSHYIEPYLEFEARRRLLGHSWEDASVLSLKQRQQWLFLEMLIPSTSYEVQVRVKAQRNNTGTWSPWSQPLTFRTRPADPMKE
Assay: P.E. binding ELISA on coated protein
QUANTITY_NAME: P.E. binding ELISA OD (OD450 nm)

BINDER: FJ1427_P035MP03G03 (VHH) VHH: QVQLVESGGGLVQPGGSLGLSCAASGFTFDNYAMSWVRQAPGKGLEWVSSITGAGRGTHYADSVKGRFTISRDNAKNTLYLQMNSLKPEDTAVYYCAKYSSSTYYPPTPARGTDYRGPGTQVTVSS
UOM: OD450 nm
P.E. binding ELISA OD: 0.05
//
BINDER: FJ1427_P035MP03C07 (VHH) VHH: QVQLVESGGGLVQAGDSLRLSCAASGRSLSTDCMGWVRQAPGKEREFVAGITWGTGSTLYADSVEGRFTISKDNAKNTGYLQMSSLKPEDTAVYYCAVDRYCYRGTVYRDWGRGTQVTVSS
UOM: OD450 nm
P.E. binding ELISA OD: 0.047
//
BINDER: FJ1427_P035MP02G11 (VHH) VHH: QLQLVESGGGLVQAGGSLRLSCAASGRDFSSYAMGWFRQAPGKEREFVVAITWTKRSTDFPDSVKGRFTISRDNAKNTVYLDMNSLKPEDTAVYYCASARGLPVTPLGDIIYWGEGTLVTVSS
UOM: OD450 nm
P.E. binding ELISA OD: 0.049
//
BINDER: FJ1427 P035MP03H10 (VHH) VHH: QVQLVESGGGLVQAGGSLRLSCAASGRTFSTTEMGWFRQAPGKEREFVAAITWTGRGTMYAESVEGRFTISRENAKNMVYLQMNSLKPEDTAIYYCAAARRGRAAVRSEGGYDFWGQGTQVTVSS
UOM: OD450 nm
P.E. binding ELISA OD: 0.049
//
BINDER: FJ1427 P035MP03C10 (VHH) VHH: QVQLVESGGGLVQAGGSLRLSCAASGRTFSTTEMGWFRQAPGKEREFVAAITWTGRGTMYAESVEGRFTISRENAKNMVYLQMNSLKPEDTAIYYCAAARRGRAAVRSEGGYDFWGQGTQVTVSS
UOM: OD450 nm
P.E. binding ELISA OD: 0.047
//
BINDER: FJ1427 P035MP03B04 (VHH) VHH: QVQLVESGGGLVQTGGSLRLSCAASGSQFINDVMGWYRQVPGKQRELVADMDDTGSTKYADSVKGRFTILRDSVKNTAYLQMSNLKPEDTGVYYCKAGLWIKGRHSDYWGQGTQVTVSS
UOM: OD450 nm
P.E. binding ELISA OD: 0.048
//
BINDER: FJ1427_P035MP03F06 (VHH) VHH: QVQLQESGGGLVQTGGSLRLSCAASGSQFINDVMGWYRQVPGKQRELVADMDDTGSTKYADSVKGRFTILRDSVKNTAYLQMSNLKPEDTGVYYCKAGLWIKGRHSDYWGQGTQVTVSS
UOM: OD450 nm
P.E. binding ELISA OD: 0.048
//
BINDER: FJ1427 P035MP03B10 (VHH) VHH: QVQLVESGGGLVQAGGSLRLSCVVSGDVFVRYTMAWFRQAPGKEREFVAVVTDSGRTTEYVDSVKGRFTVSRDNAKNTVYLQMNNLKPEDTAVYYCAANTDYFQIRSVDNNAWGQGTQVTVSS
UOM: OD450 nm
P.E. binding ELISA OD: 0.05
//
BINDER: FJ1427_P035MP02F11 (VHH) VHH: EVQLVESGGGLVQAGGSLRLSCAASGRDFSSYAMGWFRQAPGKEREFVVAITWTKRSTDFPDSVKGRFTISRDNAKNTVYLDMNSLKPEDTAVYYCASARGLPVTPLGDIIYWGEGTLVTVSS
UOM: OD450 nm
P.E. binding ELISA OD: 0.047
//
BINDER: FJ1427_P035MP03F01 (VHH) VHH: QVQLVESGGGLVQVGGSLRVSCAASGRTSGDRNMGWFRQAPGKEREFVGIITWSSGSTVYADSVKGRFTISRDNAKNTVYLDMSSLKPEDTAVYYCAADYYPYSGSWNIMDYWGKGTLVTVSS
UOM: OD450 nm
P.E. binding ELISA OD: 0.049
//
BINDER: FJ1427_P035MP03H01 (VHH) VHH: QVQLVESGGGSVQTGGSLRLSCVVSGSHFISDVMGWYRQVPGKQRELVADMADGGSAKYADSVKGRFTILRDSVKNTVTLQMSSLNPEDTGVYYCKAGLWITGRHSDYWGQGTQVTVTS
UOM: OD450 nm
P.E. binding ELISA OD: 0.051
//
BINDER: FJ1427_P035MP03E04 (VHH) VHH: QVQLVESGGGLVQTGGSLRLSCAVSGSHFISDVMGWYRQVPEKQRELVADMADGNSAKYADSVKGRFSILRDSVKNTVYLQMSSLKPEDTGIYYCKAGLWIAGRHSDYWGQGTQVTVSS
UOM: OD450 nm
P.E. binding ELISA OD: 0.048
//
BINDER: FJ1427_P035MP03D03 (VHH) VHH: QVQLVESGGGLVQVGDSLRLSCAASGRTVGSANMGWFRQAPGKEREFVAVITWSTGSTVYADSVKGRFTISRDNAKNTVYLDLSSLKPEDTAVYYCAADVYPYSGNLNIMDYWGKGTQVTVSS
UOM: OD450 nm
P.E. binding ELISA OD: 0.048
//
BINDER: FJ1427 P035MP03D11 (VHH) VHH: QVQLVESGGGLVQAGGSLRLSCAASGRTFSTTDVGWFRQAPGKEREFVAAITWSSHSTLYADSVEGRFTVTRENAKNTVYLQMNSLKPEDTAVYYCAAVRRGWAVVRTEGAYDFWGQGTQVTVSA
UOM: OD450 nm
P.E. binding ELISA OD: 0.049
//
BINDER: FJ1427_P035MP03E02 (VHH) VHH: QVQLVESGGGLVQVGGSLSVSCAASGRSFDSITMAYFRQAPGNEREFIAGINFSGSRTAYGDSVKGRFTISRDNAKNTVFLQMNSLNPEDTAVYYCAASPRGFYGPGHALYDYWGQGTQVTVSS
UOM: OD450 nm
P.E. binding ELISA OD: 0.05
